test: Cmax in Sprague-Dawley rat at 5 mg/kg, po after 0.38 hrs; format: ADME, organism-based; design: dose 5 mg/kg, route oral; details: in vivo

>  <mol>
OC[C@H]1O[C@@H](c2ccc(Cl)c(Cc3ncc(-c4ccsc4)s3)c2)[C@H](O)[C@@H](O)[C@@H]1O

>  <Cmax>
1540 ng/mL

$$$$

---

assay: Elimination half life in Sprague-Dawley rat at 5 mg/kg, po; format: ADME, organism-based; set-up: dose 5 mg/kg, route oral; conditions: in vivo
property.name: half-life (h)

>  <mol>
OC[C@H]1O[C@@H](c2ccc(Cl)c(Cc3ncc(-c4ccsc4)s3)c2)[C@H](O)[C@@H](O)[C@@H]1O

>  <quantitative.result>
2.51

$$$$

---

biological target: Sodium/glucose cotransporter 2 (Homo sapiens); assay: Inhibition of human SGLT2 expressed in CHO cells assessed as [14C]-alpha-methyl-D-glucopyranoside uptake after 2 hrs by liquid scintillation counting
Sequence (P31639 whole entry): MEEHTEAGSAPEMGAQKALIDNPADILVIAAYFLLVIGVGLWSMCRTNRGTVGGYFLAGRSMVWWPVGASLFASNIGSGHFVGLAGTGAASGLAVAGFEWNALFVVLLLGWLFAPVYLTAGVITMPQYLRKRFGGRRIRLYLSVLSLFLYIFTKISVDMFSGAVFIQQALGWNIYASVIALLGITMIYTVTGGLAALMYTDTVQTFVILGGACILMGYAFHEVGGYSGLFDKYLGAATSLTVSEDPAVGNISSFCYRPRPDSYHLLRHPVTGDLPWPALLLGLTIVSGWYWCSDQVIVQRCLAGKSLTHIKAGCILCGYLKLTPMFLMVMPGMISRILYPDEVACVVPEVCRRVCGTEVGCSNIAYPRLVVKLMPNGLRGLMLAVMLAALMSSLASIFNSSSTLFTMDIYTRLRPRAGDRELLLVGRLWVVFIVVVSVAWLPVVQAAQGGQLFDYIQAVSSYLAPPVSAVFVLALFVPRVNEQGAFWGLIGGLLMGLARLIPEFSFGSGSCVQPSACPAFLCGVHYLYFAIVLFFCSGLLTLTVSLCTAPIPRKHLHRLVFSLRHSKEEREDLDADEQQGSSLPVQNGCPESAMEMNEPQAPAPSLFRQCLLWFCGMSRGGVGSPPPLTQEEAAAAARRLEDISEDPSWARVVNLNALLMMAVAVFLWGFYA
Below: a set of entries, each annotated with reported IC50.
property.name: IC50 (nM)

>  <mol>
O=C(O)c1cnc(Cc2cc([C@@H]3O[C@H](CO)[C@@H](O)[C@H](O)[C@H]3O)ccc2Cl)s1

>  <property.name>
IC50

>  <reported.relation>
>

>  <quantitative.result>
10000

$$$$
>  <mol>
OC[C@H]1O[C@@H](c2ccc(Cl)c(Cc3ncc(-c4nccs4)s3)c2)[C@H](O)[C@@H](O)[C@@H]1O

>  <property.name>
IC50

>  <reported.relation>
=

>  <quantitative.result>
3.13

$$$$
>  <mol>
CCCCOc1cnc(Cc2cc([C@@H]3O[C@H](CO)[C@@H](O)[C@H](O)[C@H]3O)ccc2Cl)s1

>  <property.name>
IC50

>  <reported.relation>
=

>  <quantitative.result>
19.6

$$$$
>  <mol>
OC[C@H]1O[C@@H](c2ccc(Cl)c(Cc3ncc(-c4ccc(-c5ccccc5)cc4)s3)c2)[C@H](O)[C@@H](O)[C@@H]1O

>  <property.name>
IC50

>  <reported.relation>
=

>  <quantitative.result>
9.31

$$$$
>  <mol>
OC[C@H]1O[C@@H](c2ccc(Cl)c(Cc3ncc(-c4ccsc4)s3)c2)[C@H](O)[C@@H](O)[C@@H]1O

>  <property.name>
IC50

>  <reported.relation>
=

>  <quantitative.result>
0.772

$$$$
>  <mol>
OC[C@H]1O[C@@H](c2ccc(Cl)c(Cc3ncc(-c4ccoc4)s3)c2)[C@H](O)[C@@H](O)[C@@H]1O

>  <property.name>
IC50

>  <reported.relation>
=

>  <quantitative.result>
1.57

$$$$
>  <mol>
OC[C@H]1O[C@@H](c2ccc(Cl)c(Cc3ncc(-c4ccccc4)s3)c2)[C@H](O)[C@@H](O)[C@@H]1O

>  <property.name>
IC50

>  <reported.relation>
=

>  <quantitative.result>
13.3

$$$$
